Item-by-item account of pIC50
Molecular target: IL-23 mediated signalling (Homo sapiens)
Assay: Functional inhibition of IL-23 mediated STAT3 signalling (phospho-STAT3 MSD) in DB cells
Assay type: cell-based
Settings: Table 3-2; DB cells, hIL-23 at EC80; read-out: hIL-23 (pSTAT3) antagonist IC50
pIC50: −log10 of the molar value. *1 amine or outer side, *2 acyl side, *3 side chain or, on linkers, in order; H or OH if unused. Where a SMILES comes first, the peptide text is derived from it. Bridges are numbered along the chain shown (N, C = ends). [ ]: non-standard residue; d: D form. 2Nal = N[C@@H](Cc1ccc2ccccc2c1)C(=O)O; AEF = NCCOc1ccc(C[C@H](N)C(=O)O)cc1; 3Pal = N[C@@H](Cc1cccnc1)C(=O)O; αMeL = CC(C)C[C@](C)(N)C(=O)O; CH2COCH2 = O=C(C[*:1])C[*:2]; 3Amb = NCc1cccc(C(=O)O)c1; Dab = NCC[C@H](N)C(=O)O

- molecule: "CC(=O)N[C@H]1CCSC[C@@H](C(=O)N[C@@H](Cc2ccc(OCCN)cc2)C(=O)N[C@@H](Cc2c[nH]c3ccccc23)C(=O)N[C@@](C)(CCCCN)C(=O)N[C@@H](CCC(=O)O)C(=O)N[C@@H](CC(N)=O)C(=O)NCC(N)=O)NC(=O)[C@H](CCC(N)=O)NC(=O)[C@H](Cc2c[nH]c3ccccc23)NC(=O)[C@H]([C@@H](C)O)NC(=O)[C@H](CCC(N)=O)NC1=O [Compound C, reference compound]"
  pIC50: 7.89
- molecule: "CC(C)C[C@]1(C)NC(=O)[C@H](Cc2ccc3ccccc3c2)NC(=O)[C@H](Cc2ccc(OCCN)cc2)NC(=O)[C@@H]2CC(=O)N[C@H](CCCCNC(=O)CC[C@@H](C(=O)N[C@@H](CCN)C(=O)N[C@@H](Cc3cccnc3)C(N)=O)NC1=O)C(=O)N[C@@H]([C@@H](C)O)C(=O)N[C@@H](C(C)C)C(=O)N[C@@H](Cc1c[nH]c3ccccc13)C(=O)N[C@@H](CCC(N)=O)C(=O)N2 [Compound 3] ([dK]TVWQD[AEF][2Nal][αMeL]E[Dab][3Pal]-NH2; lactam 1-10, N-6)"
  pIC50: 8.82
- molecule: "CC(C)C[C@]1(C)NC(=O)[C@H](Cc2ccc3ccccc3c2)NC(=O)[C@H](Cc2ccc(OCCN)cc2)NC(=O)[C@@H]2CSCC(=O)CSC[C@H](NC(=O)[C@H](CO)NC(=O)c3cccc(c3)CNC(=O)CC[C@@H](C(=O)N[C@@H](CCCNC(=N)N)C(=O)N[C@@H](Cc3cccnc3)C(N)=O)NC1=O)C(=O)N[C@@H](Cc1c[nH]c3ccccc13)C(=O)N[C@@H](CCC(N)=O)C(=O)N2 [Ref 78, reference compound] ([3Amb]SCWQC[AEF][2Nal][αMeL]ER[3Pal]-NH2; linker 3-6 via CH2COCH2; lactam N-10)"
  pIC50: 9.89

###

Item-by-item account of pIC50
Target: human IL-23R (Homo sapiens)
Sequence (Q5VWK5 22-629): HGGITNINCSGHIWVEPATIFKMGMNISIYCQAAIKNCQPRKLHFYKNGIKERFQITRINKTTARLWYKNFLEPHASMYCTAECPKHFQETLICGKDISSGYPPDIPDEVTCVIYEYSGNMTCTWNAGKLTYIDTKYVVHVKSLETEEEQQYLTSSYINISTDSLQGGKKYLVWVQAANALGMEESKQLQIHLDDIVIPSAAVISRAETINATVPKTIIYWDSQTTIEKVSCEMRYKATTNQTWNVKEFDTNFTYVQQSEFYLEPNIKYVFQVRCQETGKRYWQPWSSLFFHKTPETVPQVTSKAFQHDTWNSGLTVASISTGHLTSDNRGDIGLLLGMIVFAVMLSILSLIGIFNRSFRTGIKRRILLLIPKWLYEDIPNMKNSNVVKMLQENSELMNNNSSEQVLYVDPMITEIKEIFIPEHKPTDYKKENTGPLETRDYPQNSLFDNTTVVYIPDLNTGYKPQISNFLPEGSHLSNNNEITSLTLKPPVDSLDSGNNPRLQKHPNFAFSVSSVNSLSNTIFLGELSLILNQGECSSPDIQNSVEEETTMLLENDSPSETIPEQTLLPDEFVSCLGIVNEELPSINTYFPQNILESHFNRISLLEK
pIC50: −log10 of the molar value. *1 amine or outer side, *2 acyl side, *3 side chain or, on linkers, in order; H or OH if unused. Where a SMILES comes first, the peptide text is derived from it. Bridges are numbered along the chain shown (N, C = ends). [ ]: non-standard residue; d: D form. The star is where a group is joined. NH(2-(3-pyridyl)ethyl) = c1cncc(CCN*)c1; 2Nal = N[C@@H](Cc1ccc2ccccc2c1)C(=O)O; AEF = NCCOc1ccc(C[C@H](N)C(=O)O)cc1; 3Pal = N[C@@H](Cc1cccnc1)C(=O)O; β3hE = N[C@@H](CCC(=O)O)CC(=O)O; αMeL = CC(C)C[C@](C)(N)C(=O)O; CH2COCH2 = O=C(C[*:1])C[*:2]; 3Amb = NCc1cccc(C(=O)O)c1; Orn = NCCC[C@H](N)C(=O)O; Dab = NCC[C@H](N)C(=O)O; βAla = NCCC(=O)O

- molecule: "CNC(=O)[C@H](Cc1cccnc1)NC(=O)[C@H](CCN)NC(=O)[C@@H]1CCC(=O)NCCC[C@@H]2NC(=O)CC[C@H](NC(=O)[C@H](CCC(N)=O)NC(=O)[C@H](Cc3c[nH]c4ccccc34)NC(=O)CCNC2=O)C(=O)N[C@@H](Cc2ccc(OCCN)cc2)C(=O)N[C@@H](Cc2ccc3ccccc3c2)C(=O)N[C@@](C)(CC(C)C)C(=O)N1 [Compound 91] ([Orn][βAla]WQE[AEF][2Nal][αMeL]E[Dab][3Pal]-NHMe; lactam 1-9, N-5)"
  study target: "human IL-23R (Homo sapiens)"
  pIC50: 9.46
- molecule: "CC[C@H](C)[C@@H]1NC(=O)[C@@H]2CCCCNC(=O)CC[C@@H](CC(=O)NCCc3cccnc3)NC(=O)[C@](C)(CC(C)C)NC(=O)[C@H](Cc3ccc4ccccc4c3)NC(=O)[C@H](Cc3ccc(OCCN)cc3)NC(=O)[C@H](CCC(=O)N2)NC(=O)[C@H](CCC(N)=O)NC(=O)[C@H](Cc2c[nH]c3ccccc23)NC(=O)[C@H](C(C)C)NC1=O [Compound 65] (KIVWQE[AEF][2Nal][αMeL][β3hE]-{NH(2-(3-pyridyl)ethyl)}; lactam 1-10, N-6)"
  study target: "human IL-23R (Homo sapiens)"
  pIC50: 6.85
- molecule: "COc1ccc(C[C@@H]2NC(=O)[C@@H]3CCC(=O)N[C@@H](CCCCNC(=O)CC[C@@H](C(=O)N[C@@H](CCCCNC(=O)Cc4ncc[nH]4)C(N)=O)NC(=O)[C@](C)(CC(C)C)NC(=O)[C@H](Cc4ccc5ccccc5c4)NC2=O)C(=O)N[C@@H]([C@@H](C)O)C(=O)N[C@@H](C(C)C)C(=O)N[C@@H](Cc2c[nH]c4ccccc24)C(=O)N[C@@H](CCC(N)=O)C(=O)N3)cc1"
  study target: "human IL-23R (Homo sapiens)"
  pIC50: 6.26
- molecule: "COc1ccc(C[C@@H]2NC(=O)[C@@H]3CCC(=O)N[C@@H](CCCCNC(=O)CC[C@@H](C(=O)N[C@@H](CCCCNC(=O)Cc4ccnc(F)c4)C(N)=O)NC(=O)[C@](C)(CC(C)C)NC(=O)[C@H](Cc4ccc5ccccc5c4)NC2=O)C(=O)N[C@@H]([C@@H](C)O)C(=O)N[C@@H](C(C)C)C(=O)N[C@@H](Cc2c[nH]c4ccccc24)C(=O)N[C@@H](CCC(N)=O)C(=O)N3)cc1"
  study target: "human IL-23R (Homo sapiens)"
  pIC50: 6.10
- molecule: "CC(C)C[C@]1(C)NC(=O)[C@H](Cc2ccc3ccccc3c2)NC(=O)[C@H](Cc2ccc(OCCN)cc2)NC(=O)[C@@H]2CSCC(=O)CSC[C@H](NC(=O)[C@H](CO)NC(=O)c3cccc(c3)CNC(=O)CC[C@@H](C(=O)N[C@@H](CCCNC(=N)N)C(=O)N[C@@H](Cc3cccnc3)C(N)=O)NC1=O)C(=O)N[C@@H](Cc1c[nH]c3ccccc13)C(=O)N[C@@H](CCC(N)=O)C(=O)N2 [Ref 78, reference compound] ([3Amb]SCWQC[AEF][2Nal][αMeL]ER[3Pal]-NH2; linker 3-6 via CH2COCH2; lactam N-10)"
  study target: "human IL-23R (Homo sapiens)"
  pIC50: 10.60
